I'd be grateful if you could share measured apparent KD of MS2 coat protein for these entries.
System: MS2 coat protein
Experiment: apparent KD of MS2 coat protein; higher = weaker reporter binding
Settings: Eterna round: R107; input ligand: theophylline 2 mM
Numbers only, in nM.

// known answers, use as guide
>>> observed_value("AUACAUGAGGAUCACCCAUGUAAAGUUGAAGGAGCGACCAGAGGGUCAGGUAGGUCGCAACACAUGAGGAUCACCCAUGUAUCGA [DOUBLE!!! :-D #6]")
79.4
>>> observed_value("GGAUAGGACACGGCCGCCACUUGCUAGGAUACUAGCAACAUUUCCUCUCAUGAGGAUCACCCAUGAAGGACCGGGUGUCCUAUCG")
23.3
>>> observed_value("GCCGGACUUUCGGCCGCCACUGAGAGAGUCGUGUGAACAUGAGGAUCACCCAUGUAAUAUAUAUACAGGACCGGGAGGGUUGGGC [4.R]")
14.4

Let's switch to this sequence now.
IN: Report apparent KD of MS2 coat protein from MS2 coat protein testing of ACGGAUCGGAAACGAUCCGCGGCGAGGGUGCGAGGACCGGUACGGCCGCCACUCGGGUAACAUGAGGAUCACCCAUGUCCGAAGA [ETA NuPACK+Vienna+Vienna2 #10 Same Structure]
OUT: 106

----------
Tested on: MS2 coat protein
Test: apparent KD of MS2 coat protein; designed switch direction (-1 OFF switch, 1 ON switch): 1; higher = weaker reporter binding
Conditions: Eterna round: R95; input ligand: none
# cutoff 200 nM applies to apparent KD of MS2 coat protein; >= gives class 1, < gives class 0

Field: example entries. Status: answers known.
>>> discrete_label("GGAGCCGGCACUGAGGAUAUUCAUAUUAAAACAUGAGGAUCACCCAUGUAGGCCAGAAGGCCUUGGGAGAAGGCAGGUCGGCUCG [salish99_ss2_r3_075] (puzzle: Same State 2)")
"class 1"
>>> discrete_label("AGUCCAGCCUGAGCUGGACAAAAGCAUGUACAUGAGGAUCACCCAUGUUUAUGUACAAGCUUUUUGCUCGUCUUAAA [Zipper 52 - 12] (puzzle: Sensor for hsa-mir-208a)")
"class 1"
>>> discrete_label("GGUAAACAUGAGGAUCACCCAUGUAAUAAUAUGGGAGGAUAUGGGAAUUAAUUAAUUAAACCAGAAGGCCUAAUGG [Mat - Same State 1 - D86] (puzzle: Same State 1)")
"class 1"
>>> discrete_label("GUGCUACAUGAGGAUCACCCAUGUACAAAUGUACGAGGAUAUGCAUGGGCUAAUGCUGGUGCAGAAGGCGUAGCGC [Pin2Pin #7] (puzzle: Same State 1)")
"class 0"
>>> discrete_label("GAAAAGGCAACGCAGGAUAUGAAAGGUGAAACAUGAGGAUCACCCAUGUGCUACCUUCCGAUAAAUCAGAAGGGCGACGCCAAAA [Leceave] (puzzle: Same State 2)")
"class 0"
>>> discrete_label("AGUCCAGCCUGAGCUGGACAAAAGCAUGUACAUGAGGAUCACCCAUGUCAUGUACAAGCUUUAUGCUCGUCUUAAAA [Mat - hsa-mir-208a - Mod of JL - D15] (puzzle: Sensor for hsa-mir-208a)")
"class 1"
>>> discrete_label("AGCUAUCGCGUACGAUAGCUGAAGCGUGUACAUGAGGAUCACCCAUGUCAUGUGCAAGCUUUUUGCUCGUCUUAUUG [JL-shm-2.29 JL mod] (puzzle: Sensor for hsa-mir-208a)")
"class 1"

Now look at this entry.
IN: Please tell me: is the sequence AGAGAACAUGAGGAUCACCCAUGUAGGAUGGGCAUAGGAUAUAGAAGGAUGAAGGAGAAACUAGAAGGAUGAUGGA [JR_SS1_Sub076] (puzzle: Same State 1) at or over 200 nM in terms of apparent KD of MS2 coat protein?
OUT: class 1
